Hello, the source for this data is ChEMBL document CHEMBL1201862, in case you need it.

tested on: HCT-116; assay: NCI tumour cell line growth inhibition, 48 h
Calls of active or inactive are those of the source. Rule as the data show it: active = GI50 up to about 1.1 µM and inactive = higher.
Give measured GI50 for each item. Keep answers brief.

Which value of GI50 has been reported for CC(C)CC1[C@@H](OCc2ccccc2)COS(=O)(=O)N1Cc1ccccc1 (stereo partly drawn) in the records?
53.5 µM (inactive)

Next compound up: C/C(=C\[Si](C)(C)c1ccco1)C(C)(O)[C@H](C)O (stereo partly drawn)
41.6 µM (inactive)

Next compound up: CC(=O)NNc1nc(C)c(C(/C=C/c2ccc(Cl)cc2)=N\NS(=O)(=O)c2ccc(C)cc2)s1
> 100 µM (inactive)

###

system: EKVX; test: NCI tumour cell line growth inhibition, 48 h
Active and inactive are the calls of the source. Rule as the data show it: active = GI50 up to about 1.1 µM and inactive = higher.
Give measured GI50 for each item. Keep answers brief.

Which value of GI50 has been reported for CC1(C)CC(=O)C(=CNc2nc(-c3ccccc3)cs2)C(=O)C1 in the records?
26.2 µM (inactive)

Next molecule up: COC(=O)c1sc(=O)n(-c2ccccc2)c1SCc1ccccc1
> 100 µM (inactive)

Next molecule up: CN(C)CC/C(=N\Nc1ccc(Cl)c(Cl)c1)c1ccccc1
1.82 µM (inactive)

Next molecule up: C/C=C(\C)C(=O)OC1C2C(C)=CC(=O)C(O)C2(C)C2C3(O)OCC24C1OC(=O)C(OC(C)=O)C4C(C)C3O (configuration not stated)
0.046 µM (active)

Next molecule up: CP(=O)(O)C(N)c1ccccc1 (configuration not stated)
> 100 µM (inactive)

Next molecule up: COc1ccc(C(SCCO)(c2ccccc2)c2ccc(OC)cc2)cc1
13.2 µM (inactive)

Next molecule up: CC(NO)/C(=N/O)c1ccco1 (configuration not stated)
> 10 µM (inactive)

###

system: Malme-3M; assay: NCI tumour cell line growth inhibition, 48 h
The source made the active and inactive calls. Cut-off read from the data, not from the text of the source: active = GI50 up to about 1.1 µM and inactive = higher.
The reply should name one outcome from class 1 for active, class 0 for inactive

Tell me the recorded outcome of this test for Cc1ccc(-c2cc(-c3ccc(Cl)cc3)nc(/N=C3\C(=O)N(CN4CCOCC4)c4ccccc43)n2)cc1 .
class 0

Next compound up: c1ccc(SC(Sc2ccccc2)c2ccc3c(c2)OCO3)cc1
class 0

Next compound up: COc1c(CCl)cc(-c2cc(=O)c3ccccc3s2)cc1CCl
class 0

Next compound up: CC(C)(C)O/N=C/c1cc(NC(=S)c2ccsc2)ccc1Cl
class 0

Next compound up: NCC(=O)N[C@H]1c2ccsc2/C(=N/O)[C@H]1O
class 0

Next compound up: O=C1C2C3CC(C4C5C=CC(C5)C34)C2C2C3CC(C12)C1C2C=CC(C2)C31 (stereo not drawn)
class 0

Next compound up: CCN(CC)c1ccc(C(=C2C=CC(=[N+](CC)CC)C=C2)c2ccc(N(CC)CC)cc2)cc1
class 1

Next compound up: Cc1nnc2nc(-c3ccc(Cl)cc3Cl)cc(-c3ccc(Cl)cc3)n12
class 0

Next compound up: O=C1C(N2CCNCC2)=C(Cl)C(=O)c2ncccc21
class 0

Next compound up: C/C(=C\CO)CC/C=C(\C)CNc1ccc([N+](=O)[O-])cc1
class 0

Next compound up: OC1C2CN3CCN(C2)CC1(c1ccccc1)C3 (stereo not drawn)
class 0

Next compound up: COC(=O)c1sc(=O)n(-c2ccccc2)c1SCc1ccccc1
class 0

Next compound up: O=C1/C(=C\c2cccc(Oc3ccccc3)c2)SC(c2ccccc2)N1c1cc(Cl)ccc1Cl (stereo not drawn)
class 0

Next compound up: CC(C)CCCC(C)[C@H]1CCC(C2C[C@@H](O)[C@@H]3CC(O)[C@@H](O)C[C@]3(CO)C2=O)[C@]1(C)CCO (stereo partly drawn)
class 0

Next compound up: COc1ccc(C(=O)C(C(=O)C(=O)NC2C3CC4CC(C3)CC2C4)c2ccc(OC)cc2)cc1 (stereo not drawn)
class 0

Next compound up: O=C(CC1Sc2ccccc2NC1=O)Nc1ccc(Cl)cc1 (stereo not drawn)
class 0

Next compound up: CCOC(=O)/C(SC#N)=C(/N)N1CCCC1
class 0

Next compound up: OCCN1c2ccccc2Sc2ccccc21
class 0

Next compound up: Clc1cc2ns[s+]c2cc1Cl
class 0

Next compound up: CCN(CC)CCCNc1ncc(C)c2c1c1ccc3c(O)cccc3c1n2C
class 0

Next compound up: O=S(=O)(c1ccccc1)N1CCC1c1ccccc1 (stereo not drawn)
class 0

Next compound up: O=C(O)Cc1ccc(Nc2nc3ccccc3nc2C(=O)O)cc1
class 0

Next compound up: CSc1ccc2c(cc1=O)[C@@H](NC(=O)c1cccc([N+](=O)[O-])c1)CCc1cc(O)c(O)c(O)c1-2
class 0
